- Test system: PI3K-γ (Homo sapiens, UniProt P48736)
- Sequence (P48736 whole entry, species assumed): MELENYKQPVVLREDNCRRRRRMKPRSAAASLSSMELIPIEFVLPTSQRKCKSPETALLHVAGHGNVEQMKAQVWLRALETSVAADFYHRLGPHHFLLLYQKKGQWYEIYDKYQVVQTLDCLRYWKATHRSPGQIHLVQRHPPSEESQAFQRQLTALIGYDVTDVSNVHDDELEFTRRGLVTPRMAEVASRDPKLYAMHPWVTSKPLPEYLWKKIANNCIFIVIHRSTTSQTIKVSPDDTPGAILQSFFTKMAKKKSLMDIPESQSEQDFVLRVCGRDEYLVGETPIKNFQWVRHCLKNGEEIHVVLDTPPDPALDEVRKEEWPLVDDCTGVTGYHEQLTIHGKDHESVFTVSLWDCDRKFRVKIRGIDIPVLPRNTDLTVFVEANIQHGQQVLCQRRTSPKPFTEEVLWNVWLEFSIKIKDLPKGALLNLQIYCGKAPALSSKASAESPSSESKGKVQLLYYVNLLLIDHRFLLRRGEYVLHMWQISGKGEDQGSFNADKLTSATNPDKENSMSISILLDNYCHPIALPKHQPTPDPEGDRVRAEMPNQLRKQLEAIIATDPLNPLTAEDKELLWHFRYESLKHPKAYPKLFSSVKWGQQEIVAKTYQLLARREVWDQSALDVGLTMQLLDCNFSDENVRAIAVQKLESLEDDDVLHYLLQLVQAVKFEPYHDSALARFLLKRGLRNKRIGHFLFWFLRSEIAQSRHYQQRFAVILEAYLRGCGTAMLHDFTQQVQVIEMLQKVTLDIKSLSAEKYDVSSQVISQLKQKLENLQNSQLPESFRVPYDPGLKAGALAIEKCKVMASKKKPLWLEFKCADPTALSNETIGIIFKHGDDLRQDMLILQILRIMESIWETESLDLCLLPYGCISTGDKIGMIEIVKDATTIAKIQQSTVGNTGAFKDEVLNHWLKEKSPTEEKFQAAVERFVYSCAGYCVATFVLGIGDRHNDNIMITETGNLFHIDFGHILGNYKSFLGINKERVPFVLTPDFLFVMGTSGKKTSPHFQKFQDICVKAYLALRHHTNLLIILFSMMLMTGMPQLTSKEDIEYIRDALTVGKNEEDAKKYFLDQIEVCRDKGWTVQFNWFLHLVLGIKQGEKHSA
- Protocol summary: PI3K-gamma fluorescence polarization assay
- Protocol conditions: read-out: IC50 PI3Kγ
Measure: log10 IC50 (log10 of the value in nM)
Please keep in mind that the values are log10 of IC50 expressed in nM.

- Compound: "COCCNC(=O)c1ccc(NC(=O)Nc2ccc(-c3nc(N4CCOCC4)nc(N4CCN(C(=O)N(C)C)CC4)n3)cc2)cc1 [Example 647]"
  log10 IC50: 2.03
- Compound: "CN1CCN(c2ccc(NC(=O)Nc3ccc(-c4nc(N5C6COCC5COC6)nc(N5C6COCC5COC6)n4)cc3)cc2)CC1 [Example 823]"
  log10 IC50: 3.45
- Compound: "CNC(=O)Nc1ccc(-c2nc(Nc3ccc(N4CCN(C)CC4)cc3)nc(N3CC4CCC(C3)O4)n2)cc1 [Example 317]"
  log10 IC50: 3.83
- Compound: "Cc1ccc(-c2nc(-c3ccc(NC(=O)Nc4ccc(C(=O)NCCN5CCCC5)cc4)cc3)nc(N3CCOCC3)n2)cc1 [Example 548]"
  log10 IC50: 2.59
- Compound: "Cc1cc(NC(=O)Nc2ccc(-c3nc(N4CCOCC4)nc(N4CC5CCC4CO5)n3)cc2)n(C)n1 (stereo not shown) [Example 808]"
  log10 IC50: 3.10

Lab note: need log10 IC50 with PI3K-γ (Homo sapiens, UniProt P48736) for entry O=C(Nc1ccncc1)Nc1ccc(-c2nc(N3CCCOCC3)nc(N3CCOCC3)n2)cc1 [Example 566] , please look it up.
1.26

Lookup: log10 IC50 / PI3K-γ (Homo sapiens, UniProt P48736) / O=C(Nc1ccncc1)Nc1ccc(-c2nc(CCC3OCCCO3)nc(N3CCOCC3)n2)cc1 [Example 267]
1.76

This collection of values is drawn from patent US20090304692A1.
